Test: Oral bioavailability in 12 hrs fasted Sprague-Dawley rat at 15 mg/kg by LC-MS analysis
Assay type: ADME, organism-based
Settings: in vivo
parameter.measured: bioavailability (%)

structure_smiles=COc1cc(CNc2ccc3c(c2)ncn3-c2ccccc2)ccc1OCCO readout_unit=% observed_value=48.2

----------
Assay: Induction of apoptosis in mouse BaF3 cells assessed as survival population at 1 uM measured after 48 hrs by Annexin V-FITC/propidium iodide staining based flow cytometry(reference value: 96.35 %)
Type: toxicity, cell-based
Settings: read-out: Activity
parameter.measured: viability at 48 h, 1 µM (%)

structure_smiles=COc1cc(CNc2ccc3c(c2)ncn3-c2ccccc2)ccc1OCCO observed_value=97.7
